Tested on: Hepatocyte
Protocol description: Antihepatotoxic activity against CCl4-induced toxicity in rat hepatocytes assessed as effect on GPT activity at 5 uM by Reitman-Fankel method relative to control
Format: functional
So basically, if Activity comes in under 50% it's Condition met, and if it's 50% or more it's Condition not met.

Previously resolved entries follow.
# Compound, Assigned class
measured = [
    ("CCCCCCCCC/C=C\\CC/C=C/[C@@H](O)[C@H](CO[C@@H]1O[C@H](CO)[C@@H](O)[C@H](O)[C@H]1O)NC(=O)C(O)CCCCCCCCCCCCCCCC (stereo partly specified)", "Condition met"),
    ("CCCCCCCCC/C=C/CC/C=C/[C@@H](O)[C@H](CO[C@@H]1O[C@H](CO)[C@@H](O)[C@H](O)[C@H]1O)NC(=O)C(O)CCCCCCCCCCCCCCCCCC (stereo partly specified)", "Condition met"),
    ("CCCCCCCCC/C=C\\CC/C=C/[C@@H](O)[C@H](CO[C@@H]1O[C@H](CO)[C@@H](O)[C@H](O)[C@H]1O)NC(=O)[C@H](O)CCCCCCCCCCCCCCCCCC", "Condition not met"),
    ("CCCCCCCCC/C=C/CC/C=C/[C@@H](O)[C@H](CO[C@@H]1O[C@H](CO)[C@@H](O)[C@H](O)[C@H]1O)NC(=O)C(O)CCCCCCCCCCCCCCCC (stereo partly specified)", "Condition not met"),
]

Could you please tell me whether Activity recorded for CCCCCCCCC/C=C\CC/C=C/[C@@H](O)[C@H](CO[C@@H]1O[C@H](CO)[C@@H](O)[C@H](O)[C@H]1O)NC(=O)C(O)CCCCCCCCCCCCCC (stereo partly specified) is less than 50%?
Condition not met

This collection of values is drawn from ChEMBL document CHEMBL1158242.
